Cited source: PubChem BioAssay AID2060487

Test system: 997537-175-T-J1-PDC complex spheroid viability
assay explanation: Anticancer human tumor 997537-175-T-J1-PDC patient-derived colon adenocarcinoma cell line growth inhibition [GQUAD]
details: second compound 0.1 µM; first compound 0.1 µM; stronger effect = lower value
Documented viability, T/C across a set of molecules
assay readout: viability, T/C (%)

INSERT INTO assay_data (molecule, assay_readout, unit_tag, measured_value) VALUES
  ('COc1cc(C2c3cc4c(cc3C(OC3OC5COC(C)OC5C(O)C3O)C3COC(=O)C23)OCO4)cc(OC)c1O (stereo unspecified) + CN(C)c1ccc(Nc2c3ccc(NC(=O)CCN4CCCC4)cc3nc3cc(NC(=O)CCN4CCCC4)ccc23)cc1', 'viability, T/C', '%', 105),
  ('O=c1[nH]cc(F)c(=O)[nH]1 + CN(C)c1ccc(Nc2c3ccc(NC(=O)CCN4CCCC4)cc3nc3cc(NC(=O)CCN4CCCC4)ccc23)cc1', 'viability, T/C', '%', 83),
  ('C=CC(=O)N1CCN(c2nc(=O)n(-c3c(C)ccnc3C(C)C)c3nc(-c4c(O)cccc4F)c(F)cc23)C(C)C1 (stereo unspecified) + Cc1cnc(CNC(=O)c2c(=O)c3ccc(N4CCCN(C)CC4)nc3n3c2sc2ccccc23)cn1', 'viability, T/C', '%', 77.7),
  ('O=c1[nH]cc(F)c(=O)[nH]1 + Cc1cnc(CNC(=O)c2c(=O)c3ccc(N4CCCN(C)CC4)nc3n3c2sc2ccccc23)cn1', 'viability, T/C', '%', 82.8),
  ('CC1COCCN1c1cc(C2(O)CC3CCC(C2)O3)c2cnn(-c3ccn[nH]3)c2n1 (stereo unspecified) + Cc1[nH]c2ccc(F)cc2c1-c1nc2c3cccnc3c3ncccc3c2[nH]1', 'viability, T/C', '%', 59.5),
  ('CC1COCCN1c1cc(-c2ccnn2C)c2ccnc(-c3ccn[nH]3)c2n1 (stereo unspecified) + Cc1[nH]c2ccc(F)cc2c1-c1nc2c3cccnc3c3ncccc3c2[nH]1', 'viability, T/C', '%', 64.5);

---

System: 997537-175-T-J1-PDC complex spheroid viability
assay explanation: Anticancer human tumor 997537-175-T-J1-PDC cell line growth inhibition [GQUAD];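 further: spheroids exposed to the agents for 7 days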
details: curve of first compound; second compound 0.0316 µM
assay readout: IC50 (nM)

INSERT INTO measurements (molecule, relational_operator, measured_value) VALUES
  ('Cc1[nH]c2ccccc2c1CCNCc1ccc(/C=C/C(=O)NO)cc1 + Cc1cnc(CNC(=O)c2c(=O)c3ccc(N4CCCN(C)CC4)nc3n3c2sc2ccccc23)cn1', '>', 316),
  ('CCc1c2c(nc3ccc(O)cc13)-c1cc3c(c(=O)n1C2)COC(=O)[C@]3(O)CC + Cc1[nH]c2ccc(F)cc2c1-c1nc2c3cccnc3c3ncccc3c2[nH]1', '=', 11.9),
  ('CCc1c2c(nc3ccc(O)cc13)-c1cc3c(c(=O)n1C2)COC(=O)[C@]3(O)CC + CN(C)c1ccc(Nc2c3ccc(NC(=O)CCN4CCCC4)cc3nc3cc(NC(=O)CCN4CCCC4)ccc23)cc1', '=', 13.8),
  ('Cc1cccc(N(C)C(=O)C2C(O)CCN2c2nc(C)cc(C(F)(F)F)c2C#N)c1 (stereo not given) + CN(C)c1ccc(Nc2c3ccc(NC(=O)CCN4CCCC4)cc3nc3cc(NC(=O)CCN4CCCC4)ccc23)cc1', '>', 10000),
  ('O=C(c1cc(Cc2n[nH]c(=O)c3ccccc23)ccc1F)N1CCN(C(=O)C2CC2)CC1 + CN(C)c1ccc(Nc2c3ccc(NC(=O)CCN4CCCC4)cc3nc3cc(NC(=O)CCN4CCCC4)ccc23)cc1', '>', 10000);

---

Tested on: 997537-175-T-J1-PDC complex spheroid viability
assay explanation: Anticancer human tumor 997537-175-T-J1-PDC cell line growth inhibition [GQUAD];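 further: spheroids exposed to the agents for 7 days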;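 on viability, T/C: 100% = DMSO vehicle control viability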
details: second compound 0.316 µM; first compound 3.16 µM; stronger effect = lower value
viability, T/C reference
assay readout: viability, T/C (%)

INSERT INTO assay_data (compound, unit_tag, measured_value) VALUES
  ('CC(C)(O)C1CCC(Nc2ccc3ncc(-c4cccc(C(F)(F)F)c4)n3n2)CC1 (centres undefined) + Cc1[nH]c2ccc(F)cc2c1-c1nc2c3cccnc3c3ncccc3c2[nH]1', '%', 104),
  ('CC1COCCN1c1cc(C2(S(C)(=N)=O)CC2)nc(-c2ccnc3[nH]ccc23)n1 (centres undefined) + Cc1[nH]c2ccc(F)cc2c1-c1nc2c3cccnc3c3ncccc3c2[nH]1', '%', 62.3),
  ('C=CC(=O)N1CCN(c2nc(=O)n(-c3c(C)ccnc3C(C)C)c3nc(-c4c(O)cccc4F)c(F)cc23)C(C)C1 (centres undefined) + Cc1cnc(CNC(=O)c2c(=O)c3ccc(N4CCCN(C)CC4)nc3n3c2sc2ccccc23)cn1', '%', 89.4),
  ('C=CC(=O)N1CCN(c2nc(=O)n(-c3c(C)ccnc3C(C)C)c3nc(-c4c(O)cccc4F)c(F)cc23)C(C)C1 (centres undefined) + Cc1[nH]c2ccc(F)cc2c1-c1nc2c3cccnc3c3ncccc3c2[nH]1', '%', 95.3),
  ('Nc1ccn(C2OC(CO)C(O)C2(F)F)c(=O)n1 (centres undefined) + CN(C)c1ccc(Nc2c3ccc(NC(=O)CCN4CCCC4)cc3nc3cc(NC(=O)CCN4CCCC4)ccc23)cc1', '%', 96.8),
  ('C#Cc1c(F)ccc2cc(O)cc(-c3ncc4c(N5CC6CCC(C5)N6)nc(OCC56CCCN5CC(F)C6)nc4c3F)c12 (centres undefined) + Cc1cnc(CNC(=O)c2c(=O)c3ccc(N4CCCN(C)CC4)nc3n3c2sc2ccccc23)cn1', '%', 79.9),
  ('C#Cc1c(F)ccc2cc(O)cc(-c3ncc4c(N5CC6CCC(C5)N6)nc(OCC56CCCN5CC(F)C6)nc4c3F)c12 (centres undefined) + Cc1[nH]c2ccc(F)cc2c1-c1nc2c3cccnc3c3ncccc3c2[nH]1', '%', 35.4),
  ('CC(=O)O[C@H]1C(=O)[C@@]2(C)[C@H]([C@H](OC(=O)c3ccccc3)[C@]3(O)C[C@H](OC(=O)[C@H](O)[C@@H](NC(=O)c4ccccc4)c4ccccc4)C(C)=C1C3(C)C)[C@]1(OC(C)=O)CO[C@@H]1C[C@@H]2O + Cc1[nH]c2ccc(F)cc2c1-c1nc2c3cccnc3c3ncccc3c2[nH]1', '%', 75.5),
  ('O=c1[nH]cc(F)c(=O)[nH]1 + Cc1cnc(CNC(=O)c2c(=O)c3ccc(N4CCCN(C)CC4)nc3n3c2sc2ccccc23)cn1', '%', 110);

---

Measured viability, T/C accompanies every entry in the list below.
Test system: 997537-175-T-J1-PDC complex spheroid viability
assay explanation: Anticancer human tumor 997537-175-T-J1-PDC cell line growth inhibition [GQUAD];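 further: spheroids exposed to the agents for 7 days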;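 on viability, T/C: 100% = DMSO vehicle control viability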
details: second compound 1 µM; first compound 3.16 µM; stronger effect = lower value
assay readout: viability, T/C (%)

INSERT INTO measurements (compound, assay_readout, measured_value) VALUES
  ('Cc1cccc(N(C)C(=O)C2C(O)CCN2c2nc(C)cc(C(F)(F)F)c2C#N)c1 (stereo not given) + Cc1[nH]c2ccc(F)cc2c1-c1nc2c3cccnc3c3ncccc3c2[nH]1', 'viability, T/C', 104),
  ('C=CCn1c(=O)c2cnc(Nc3ccc(N4CCN(C)CC4)cc3)nc2n1-c1cccc(C(C)(C)O)n1 + Cc1[nH]c2ccc(F)cc2c1-c1nc2c3cccnc3c3ncccc3c2[nH]1', 'viability, T/C', 71.2),
  ('COc1ncnc(C2CC2)c1-c1ncc2cnn(Cc3ccc(-c4nc(C(F)(F)F)cn4C(C)C)cc3)c2n1 + Cc1cnc(CNC(=O)c2c(=O)c3ccc(N4CCCN(C)CC4)nc3n3c2sc2ccccc23)cn1', 'viability, T/C', 121),
  ('CC1COCCN1c1cc(-c2ccnn2C)c2ccnc(-c3ccn[nH]3)c2n1 (stereo not given) + Cc1[nH]c2ccc(F)cc2c1-c1nc2c3cccnc3c3ncccc3c2[nH]1', 'viability, T/C', 42.6),
  ('Cc1cccc(N(C)C(=O)C2C(O)CCN2c2nc(C)cc(C(F)(F)F)c2C#N)c1 (stereo not given) + CN(C)c1ccc(Nc2c3ccc(NC(=O)CCN4CCCC4)cc3nc3cc(NC(=O)CCN4CCCC4)ccc23)cc1', 'viability, T/C', 104);

---

Reported viability, T/C values for the following molecules.
Tested on: 997537-175-T-J1-PDC complex spheroid viability
assay explanation: Anticancer human tumor 997537-175-T-J1-PDC cell line growth inhibition [GQUAD];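 further: spheroids exposed to the agents for 7 days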;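 on viability, T/C: 100% = DMSO vehicle control viability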
details: second compound 0.1 µM; first compound 3.16 µM; stronger effect = lower value
assay readout: viability, T/C (%)

INSERT INTO measurements (molecule, system_tested, assay_readout, unit_tag, measured_value) VALUES
  ('Cc1cccc(N(C)C(=O)C2C(O)CCN2c2nc(C)cc(C(F)(F)F)c2C#N)c1 (centres undefined) + Cc1cnc(CNC(=O)c2c(=O)c3ccc(N4CCCN(C)CC4)nc3n3c2sc2ccccc23)cn1', '997537-175-T-J1-PDC complex spheroid viability', 'viability, T/C', '%', 88.6),
  ('COc1ncnc(C2CC2)c1-c1ncc2cnn(Cc3ccc(-c4nc(C(F)(F)F)cn4C(C)C)cc3)c2n1 + Cc1[nH]c2ccc(F)cc2c1-c1nc2c3cccnc3c3ncccc3c2[nH]1', '997537-175-T-J1-PDC complex spheroid viability', 'viability, T/C', '%', 87.9),
  ('COc1cccc2c1C(=O)c1c(O)c3c(c(O)c1C2=O)CC(O)(C(=O)CO)CC3OC1CC(N)C(O)C(C)O1 (centres undefined) + CN(C)c1ccc(Nc2c3ccc(NC(=O)CCN4CCCC4)cc3nc3cc(NC(=O)CCN4CCCC4)ccc23)cc1', '997537-175-T-J1-PDC complex spheroid viability', 'viability, T/C', '%', 96.2),
  ('CC1COCCN1c1cc(C2(S(C)(=N)=O)CC2)nc(-c2ccnc3[nH]ccc23)n1 (centres undefined) + Cc1[nH]c2ccc(F)cc2c1-c1nc2c3cccnc3c3ncccc3c2[nH]1', '997537-175-T-J1-PDC complex spheroid viability', 'viability, T/C', '%', 70.3);
